- Target Of Assay: Tumor necrosis factor (Homo sapiens, UniProt P01375)
- Sequence (P01375 whole entry): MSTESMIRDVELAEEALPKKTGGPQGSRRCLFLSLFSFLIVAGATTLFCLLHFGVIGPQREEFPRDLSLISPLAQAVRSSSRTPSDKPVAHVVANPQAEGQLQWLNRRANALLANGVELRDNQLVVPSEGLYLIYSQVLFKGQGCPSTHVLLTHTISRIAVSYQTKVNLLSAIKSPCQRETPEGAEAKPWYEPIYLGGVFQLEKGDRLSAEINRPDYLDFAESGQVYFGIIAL
- Assay Method Text: TNFa-triggered NF-kB activation inhibitors, SAR follow-up, cell-based, revised (AID 2337)
- Format: functional
The source made the active and inactive calls.
Give one outcome, nothing more. List: T for active, F for inactive

Call for entry O=C(Nc1nc2ccccc2n1Cc1ccc(Cl)cc1)c1cccs1 :
F

How was C=CCN(c1ccccc1OC)S(=O)(=O)c1ccc(Cl)c(C(=O)Nc2ccc(N3CCOCC3)cc2)c1 classified in this test?
T

Assay result, entry COc1ccc(NC(=O)c2ccc(CN3CCc4ccccc43)cc2)cc1 — outcome?
F

Kindly provide the recorded test outcome for the following compound: Cn1nccc1C(=O)NC1CCCc2c1cnn2-c1ccc(F)cc1F (centres undefined)
T

###

- Target Of Assay: Luciferin 4-monooxygenase (Photinus pyralis, UniProt P08659)
- Sequence (P08659 whole entry): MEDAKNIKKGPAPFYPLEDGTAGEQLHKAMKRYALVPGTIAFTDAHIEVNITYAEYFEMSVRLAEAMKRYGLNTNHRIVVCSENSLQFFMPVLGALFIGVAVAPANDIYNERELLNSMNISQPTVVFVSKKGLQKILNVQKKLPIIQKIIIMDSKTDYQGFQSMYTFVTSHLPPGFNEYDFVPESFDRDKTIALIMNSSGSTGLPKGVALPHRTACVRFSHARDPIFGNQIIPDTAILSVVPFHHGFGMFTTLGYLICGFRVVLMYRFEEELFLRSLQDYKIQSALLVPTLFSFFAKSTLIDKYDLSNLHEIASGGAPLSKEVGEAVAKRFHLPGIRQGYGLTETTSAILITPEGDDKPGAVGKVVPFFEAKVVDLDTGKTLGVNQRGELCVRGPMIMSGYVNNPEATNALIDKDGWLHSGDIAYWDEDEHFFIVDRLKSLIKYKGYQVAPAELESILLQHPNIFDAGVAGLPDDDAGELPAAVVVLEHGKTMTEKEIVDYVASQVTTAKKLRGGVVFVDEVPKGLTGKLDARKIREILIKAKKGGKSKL
- Assay Method Text: firefly luciferase enzyme inhibitors, dose response, biochemical, luminescence (AID 1891)
Active and inactive are the calls of the source.
Measured EC50 accompanies every entry in the list below.

Take a look at these entries with their results.
CCN(CC(=O)NCc1ccc(Cl)cc1)C(=O)CSc1ccc(Br)cc1 ... 43.9 µM (active)
O=C(CSc1nnc(-c2cccnc2)n1Cc1ccccc1)N1CCOCC1 ... > 112 µM (not active)
Cn1c(=S)oc2ccccc21 ... > 112 µM (not active)

Tell me its EC50 given COc1ccccc1C(=O)NN1C(=O)C2C3C=CC(O3)C2C1=O (stereo unspecified) as the entry.
> 112 µM (not active)

Please look at this compound and report its EC50: Cc1cc(C)c(NC(=O)CSc2ccc3nnc(CCNC(=O)c4ccccc4)n3n2)c(C)c1
> 112 µM (not active)

Answer with reported EC50 of Cc1ccccc1/N=C/C1=C(O)c2ccccc2C1=O
1.02 µM (active)

###

AC50 listing for selected molecules.
- Target Of Assay: Replicative DNA helicase DnaB (Mycobacterium tuberculosis, UniProt P9WMR3)
- Assay Method Text: DnaB intein splicing inhibitors, dose response, biochemical, cell-free fluorescence (AID 449749)
- Type: functional
The source made the active and inactive calls.

Give AC50 for Cc1cccc(CN2CCN(C(=O)CCl)CC2)c1
21.4 µM (active)

Note down AC50 recorded for CCOc1cccc(-c2cc(O)[nH]n2)c1
2.18 µM (active)

Please look at this molecule and report its AC50: O=C(/C=C/c1cccs1)Nc1scc(-c2ccccc2)c1C(=O)O
23.3 µM (active)

###

- Assay Method Text: ZM109 Env clade C HIV-1 fusion inhibitors, dose response, HeLa effector, CEM target cells, luciferase, cherry-pick (AID 652058)
- Type: functional, cell-based
The source made the active and inactive calls.
Metric Name: AC50

Please review the following examples before continuing.
N#Cc1ccc(C(c2nnnn2CCc2ccccc2)N2CCCCCC2)cc1 (stereo unspecified) ... 12.1 µM (active)
C[C@@H]1CN([C@@H](C)CO)C(=O)c2cccc(NS(=O)(=O)c3ccc(F)cc3)c2O[C@@H]1CN(C)Cc1ccc(C(F)(F)F)cc1 ... 0.451 µM (active)
CO[C@@H](CN(C)S(=O)(=O)c1ccc(Cl)cc1)[C@@H](C)CN([C@H](C)CO)S(=O)(=O)c1cccc(Cl)c1 ... 1.1 µM (active)
c1csc(CNc2ncnc3sccc23)c1 ... 46.1 µM (active)
O=C1c2cccnc2C(Nc2ccc(S(=O)(=O)N3CCCCCC3)cc2)N1Cc1ccccc1 (stereo unspecified) ... 30.5 µM (active)

Answer with the recorded AC50 for the compound listed here: S=C(NCCCN1CCOCC1)N1CCN(c2nc(-c3ccc(Cl)cc3)cs2)CC1
0.888 µM (active)

###

IC50 by entry:
- Target Of Assay: Galanin receptor type 3 (Homo sapiens, UniProt O60755)
- Sequence (O60755 whole entry): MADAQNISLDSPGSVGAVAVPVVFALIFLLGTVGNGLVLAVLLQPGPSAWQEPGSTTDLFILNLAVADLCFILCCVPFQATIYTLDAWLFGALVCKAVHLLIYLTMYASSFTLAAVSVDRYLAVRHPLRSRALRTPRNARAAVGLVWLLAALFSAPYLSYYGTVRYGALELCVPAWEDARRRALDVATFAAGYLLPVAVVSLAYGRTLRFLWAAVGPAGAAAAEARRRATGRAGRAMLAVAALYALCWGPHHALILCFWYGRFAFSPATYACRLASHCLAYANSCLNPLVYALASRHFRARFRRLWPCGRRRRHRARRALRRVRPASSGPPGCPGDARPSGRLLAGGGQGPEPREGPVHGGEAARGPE
- Assay Method Text: Fluorescence-based cell-based primary high throughput dose response assay to identify antagonists of the Galanin Receptor 3 (GalR3).
- Format: functional
The source made the active and inactive calls.

// known answers, use as guide
COc1ccc(CNC(=O)c2cccc3c(-c4cccnc4)coc23)cc1OC ... 126 nM (active)
Cn1nccc1C(=O)NC1CCCc2c1cnn2-c1ccc(F)cc1F (configuration not stated) ... 240 nM (active)
CN(C)c1ccc(C=c2c3ccccc3n3c2c2c([n+]3C)CCCC2)cc1 ... 1310 nM (active)
CC(C)(C)c1ccc(C(=O)Nc2ccc(Oc3cccnc3)nc2)cc1 ... 1330 nM (active)
CN1CCN(c2ccc(CNS(=O)(=O)Cc3cccc(C(F)(F)F)c3)cc2)CC1 ... 2080 nM (active)

Supply IC50 value. Item: O=C(Cc1ccc(Cl)cc1Cl)Nc1ccncc1Cl
4440 nM (active)

Give the measured IC50 for O=C(COC(=O)c1[nH]nc2ccccc12)NCCc1ccc(Cl)cc1
2870 nM (active)

###

- Target Of Assay: Short transient receptor potential channel 4 (Mus musculus)
- Sequence (Q9QUQ5 whole entry): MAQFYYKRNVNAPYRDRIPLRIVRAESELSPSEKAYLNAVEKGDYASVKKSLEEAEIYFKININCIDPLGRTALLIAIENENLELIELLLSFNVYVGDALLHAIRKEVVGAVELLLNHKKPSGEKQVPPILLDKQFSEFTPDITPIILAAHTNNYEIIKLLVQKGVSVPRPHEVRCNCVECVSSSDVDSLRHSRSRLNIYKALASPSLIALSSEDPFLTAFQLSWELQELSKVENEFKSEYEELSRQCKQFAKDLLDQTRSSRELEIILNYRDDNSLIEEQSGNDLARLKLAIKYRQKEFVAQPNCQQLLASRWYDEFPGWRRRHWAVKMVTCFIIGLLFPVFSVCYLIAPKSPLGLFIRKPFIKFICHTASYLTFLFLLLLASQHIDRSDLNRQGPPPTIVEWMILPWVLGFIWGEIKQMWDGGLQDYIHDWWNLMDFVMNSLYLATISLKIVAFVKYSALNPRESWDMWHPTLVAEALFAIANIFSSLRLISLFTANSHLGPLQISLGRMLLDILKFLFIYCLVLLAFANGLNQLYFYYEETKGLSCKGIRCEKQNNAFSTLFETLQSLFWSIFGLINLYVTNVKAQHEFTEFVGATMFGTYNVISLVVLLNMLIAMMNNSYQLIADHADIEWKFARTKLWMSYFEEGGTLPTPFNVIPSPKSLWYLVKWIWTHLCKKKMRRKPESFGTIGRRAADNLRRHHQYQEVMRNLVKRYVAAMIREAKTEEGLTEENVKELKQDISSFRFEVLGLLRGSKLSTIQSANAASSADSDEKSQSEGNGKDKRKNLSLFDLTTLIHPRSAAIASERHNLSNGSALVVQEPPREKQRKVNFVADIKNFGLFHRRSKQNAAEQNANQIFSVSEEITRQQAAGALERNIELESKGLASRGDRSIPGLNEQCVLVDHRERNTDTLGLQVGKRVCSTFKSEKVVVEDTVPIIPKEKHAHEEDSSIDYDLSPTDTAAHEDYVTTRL
- Assay Method Text: mouse TRPC4 channel activators, dose response, cell-based, HEK293 TRPC4/mu-opioid, Fluo-4 calcium (AID 434937)
- Type: functional
Calls of active or inactive are those of the source.
The reader will find reported EC50 values listed item by item below.

O=C(O)C1C2C=CC(C2)C1C(=O)NC1CCN(Cc2ccccc2)CC1 (stereo unspecified) ... 5.31 µM (active)
CCN1CCCC1CNC(=O)c1cc2c(OC)cccc2[nH]1 (stereo unspecified) ... 6.68 µM (active)
Cc1cc(-c2nn(-c3ccccc3F)cc2CNCCc2c[nH]cn2)c(C)s1 ... 0.0427 µM (active)
COC(=O)NCC(c1ccc2c(c1)OCO2)N1CCN(c2ccccc2)CC1 (stereo unspecified) ... 0.105 µM (active)
CC(C)(C)c1ccc(C(=O)NC(=S)NNC(=O)COc2ccccc2)cc1 ... 5.96 µM (active)

# evaluate next
Look up EC50 of O=c1c2ccccc2[nH]c(=S)n1Cc1cccnc1 and report it.
2.66 µM (active)

###

- Target Of Assay: Cytochrome P450 2D6 (Homo sapiens);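 also: CYP2D6 member of a cytochrome P450 panel assay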
- Sequence (P10635 whole entry): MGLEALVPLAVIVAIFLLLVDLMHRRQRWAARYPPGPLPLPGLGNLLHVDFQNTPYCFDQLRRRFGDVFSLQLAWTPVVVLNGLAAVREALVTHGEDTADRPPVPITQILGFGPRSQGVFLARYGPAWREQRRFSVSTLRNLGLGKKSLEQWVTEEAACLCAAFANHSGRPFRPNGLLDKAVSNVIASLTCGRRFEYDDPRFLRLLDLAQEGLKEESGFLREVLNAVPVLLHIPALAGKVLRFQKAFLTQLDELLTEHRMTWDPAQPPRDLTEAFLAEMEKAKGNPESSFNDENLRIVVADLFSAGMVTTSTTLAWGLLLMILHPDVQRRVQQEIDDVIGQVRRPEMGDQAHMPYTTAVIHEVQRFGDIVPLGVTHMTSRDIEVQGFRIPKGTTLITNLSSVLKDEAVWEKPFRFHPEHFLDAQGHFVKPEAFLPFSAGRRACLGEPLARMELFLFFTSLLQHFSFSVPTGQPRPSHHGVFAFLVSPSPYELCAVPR
The source made the active and inactive calls.
Collected AC50 values appear next to each entry.

Use the examples below as a reference point.
C/C(CC(=O)NCCCN1CCOCC1)=N\NC(=O)COc1ccc(Cl)cc1 ... 14.1 µM (inconclusive)
N#Cc1cccc(NC(=O)N2CC[C@@]3(CCCN(S(=O)(=O)c4ccccc4)C3)C2)c1 ... 39.8 µM (inconclusive)
Cc1ccc(-c2ncccc2OC(=O)C23CC4CC(CC(C4)C2)C3)cc1 ... 22.4 µM (inconclusive)
Cc1cnc(CNc2ncncc2-c2ccc3c(c2)OCO3)cn1 ... 20 µM (inconclusive)
COc1ccc(C(=O)N2CCC[C@@]3(CCN(CC(C)C)C3)C2)cc1 ... 15.8 µM (inconclusive)

Item COc1ccc(CNc2ncnc3ccc(-c4ccc(N(C)C)cc4)cc23)c(OC)c1 : provide AC50
25.1 µM (inconclusive)

Specify AC50 for CC(=O)Oc1ccc2ccccc2c1C(NC(=O)Cc1ccccc1)c1ccc(Cl)cc1 (centres undefined) and stop.
11.2 µM (inconclusive)

Tell me its AC50 given COc1ccccc1OCC(=O)N/N=C1/SCC(=O)N1Cc1ccccc1 as the entry.
22.4 µM (inconclusive)

Quick one: give measured AC50 for COc1ccc2[nH]cc(CCNc3ccnc(-c4ccccc4C(F)(F)F)n3)c2c1
15.8 µM (inconclusive)

Given CN=c1ccc(Br)cc(C(=O)/C=C/c2ccc3c(c2)OCO3)c1O , respond with its AC50.
10 µM (inconclusive)

Check the records and state AC50 for COc1ccc(CNc2ncnc3ccc(-c4ccc5c(c4)OCO5)cc23)c(OC)c1
2.51 µM (active)

Please list AC50 recorded for the molecule Cn1cc(-c2nc3cnc(N4CCNCC4)nc3n(CCc3ccccc3)c2=O)c2ccccc21
39.8 µM (inconclusive)

Give a short answer stating reported AC50 for Cc1ccccc1C(=O)c1c[nH]c(C(=O)NCc2cccs2)c1 .
14.1 µM (inconclusive)

Identify measured AC50 corresponding to CCOC(=O)C1CCCN(C(=O)CSCc2ccccc2)C1 (centres undefined)
15.8 µM (inconclusive)

Please look at this molecule and report its AC50: CC(=O)N1CCN(c2ccccc2NC(=O)COc2ccc(Br)cc2)CC1
15.8 µM (inconclusive)

Consider the molecule N#Cc1ccc(OC(=O)c2ccc(NC(=N)N)cc2)cc1.c1ccncc1 and give its recorded AC50.
3.16 µM (inconclusive)

Give the value of AC50 reported for the following: Cc1nc2cnc(N3CCOCC3)nc2n(Cc2cccs2)c1=O
39.8 µM (inconclusive)

Name the recorded AC50 of the molecule listed here: COc1ccc(N2CCC(CNC(=O)Nc3ccc(OC)cc3OC)C2)cc1 (centres undefined)
28.2 µM (inconclusive)

Provide AC50 value for the following molecule: c1cncc(-c2cc(NCc3cccs3)ncn2)c1
25.1 µM (inconclusive)

###

- Tested on: BJ
- Assay Method Text: cytotoxicity toward BJ-TERT fibroblasts, dose response, cell-based, RAS-independent, luminescence (AID 1933)
- Assay type: functional
- Condition Description: Homo sapiens
Activity calls are given as the source filed them.
List of EC50 values.

// worked examples, EC50 included
Cc1cc2nc3ccc(N(C)C)cc3[s+]c2cc1N [TOLONIUM CHLORIDE] ... 5.74 µM (active)
COc1ccc(C2CC(c3cccs3)=NN2C(=O)CCl)cc1OC (centres undefined) ... 0.834 µM (active)
COc1ccc(F)cc1CN1CCN(C(=O)CCC(=O)Nc2nnc(CC(C)C)s2)CC1 ... > 150 µM (not active)

In the following, a different molecule is considered.
# return EC50 of CCCn1c(SCC(=O)Nc2ccccc2OC)nnc1-c1ccco1 (system: BJ)
29.2 µM (active)
